// data source = paper PMC9848300

- Test system: MCF7
- PROTOCOL_NOTES: NCI 60 antitumor screening (single dose)
- Assay type: cell-based
- ASSAY_CONTEXT: Homo sapiens; MCF7 (breast cancer), single dose 10 μM; read-out: Growth inhibition percentage (GI %)
VALUE_TYPE: inhibition at 10 µM (%)
The reply should contain only the number, in %.

Write down the reported inhibition at 10 µM (system: MCF7) of Oc1ccccc1/C=N/Nc1nc(N/N=C/c2ccccc2O)nc(N2CCOCC2)n1 [compound 6a] 60

Write down the reported inhibition at 10 µM (system: MCF7) of Brc1ccccc1/C=N/Nc1nc(N/N=C/c2ccccc2Br)nc(N2CCCCC2)n1 [compound 7b] 13.2

Write down the reported inhibition at 10 µM (system: MCF7) of Fc1cccc(Cl)c1/C=N/Nc1nc(N/N=C/c2c(F)cccc2Cl)nc(N2CCOCC2)n1 [compound 6l] 29

Write down the reported inhibition at 10 µM (system: MCF7) of CN(C)c1ccc(/C=N/Nc2nc(N/N=C/c3ccc(N(C)C)cc3)nc(N3CCCCC3)n2)cc1 [compound 7g] 68.9

Write down the reported inhibition at 10 µM (system: MCF7) of Clc1cccc(/C=N/Nc2nc(N/N=C/c3cccc(Cl)c3Cl)nc(N3CCCCC3)n2)c1Cl [compound 7h] 28.8

Write down the reported inhibition at 10 µM (system: MCF7) of Clc1cccc(/C=N/Nc2nc(N/N=C/c3cccc(Cl)c3)nc(N3CCCCC3)n2)c1 [compound 7d] 16.9

Write down the reported inhibition at 10 µM (system: MCF7) of C(=N\Nc1nc(N/N=C/c2ccc3c(c2)OCO3)nc(N2CCOCC2)n1)/c1ccc2c(c1)OCO2 [compound 6k] 30.9

Write down the reported inhibition at 10 µM (system: MCF7) of O=C1Nc2ccc(Cl)cc2/C1=N\Nc1nc(N/N=C2/C(=O)Nc3ccc(Cl)cc32)nc(N2CCOCC2)n1 [compound 8b] 56.9

* * *

- PROTOCOL_NOTES: in vitro
- ASSAY_CONTEXT: human
VALUE_TYPE: IC50 (µM)
The reply should contain only the number, in µM.

Answer with the recorded IC50 for the compound listed here: Brc1cccc(/C=N/Nc2nc(N/N=C/c3cccc(Br)c3)nc(N3CCOCC3)n2)c1 53.7

* * *

- Tested on: RXF 393
- PROTOCOL_NOTES: NCI 60 antitumor screening (single dose / five doses)
- Type: cell-based
- ASSAY_CONTEXT: Homo sapiens; RXF 393, five doses (0.01–100 μM); read-out: GI50
Under this convention, Criterion met denotes GI50 strictly below 2000 nM and Criterion not met denotes GI50 at or above 2000 nM.

Threshold test, GI50 < 2000 nM: Fc1cccc(Cl)c1/C=N/Nc1nc(N/N=C/c2c(F)cccc2Cl)nc(N2CCCCC2)n1 [compound 7l] Criterion not met

Threshold test, GI50 < 2000 nM: Oc1ccccc1/C=N/Nc1nc(N/N=C/c2ccccc2O)nc(N2CCOCC2)n1 [compound 6a] Criterion met

Threshold test, GI50 < 2000 nM: Brc1cccc(/C=N/Nc2nc(N/N=C/c3cccc(Br)c3)nc(N3CCOCC3)n2)c1 [compound 6c] Criterion met

Threshold test, GI50 < 2000 nM: Clc1cccc(/C=N/Nc2nc(N/N=C/c3cccc(Cl)c3)nc(N3CCOCC3)n2)c1 [compound 6d] Criterion met

Threshold test, GI50 < 2000 nM: CN(C)c1ccc(/C=N/Nc2nc(N/N=C/c3ccc(N(C)C)cc3)nc(N3CCCCC3)n2)cc1 [compound 7g] Criterion not met
